Measured values drawn from the Immune Epitope Database (IEDB) for this set.

# Target under test: HLA-A*02:01
# Assay notes: IEDB peptide-MHC binding, purified MHC/direct/fluorescence; filed as Kd, often an IC50 or EC50 that approximates it; bounds were set here for any values at or beyond the usual limits of such assays
# Condition set: source organism: Cryptosporidium parvum Iowa II
pKd: −log10 of the molar value.
Observable: pKd

Query: # value lookup — system HLA-A*02:01, readout pKd, item MPMSMPIPM
Reply: ≤ 4.70

====

# Target under test: HLA-B*15:02
# Assay notes: IEDB peptide-MHC binding, purified MHC/competitive/fluorescence; filed as Kd, often an IC50 or EC50 that approximates it; bounds were set here for any values at or beyond the usual limits of such assays
# Condition set: source organism: Methylibium petroleiphilum PM1
Observable: pKd
One number for each entry, as −log10 of the molar value.

Query: Dear colleague, I am looking for the recorded pKd of the following sequence: FQMGGIGPM
Reply: 7.84

====

Hi there, I'd appreciate the recorded pKd for every entry that follows.
# Target under test: HLA-A*68:02
# Assay notes: IEDB peptide-MHC binding, purified MHC/competitive/radioactivity; filed as Kd, often an IC50 or EC50 that approximates it; bounds were set here for any values at or beyond the usual limits of such assays
# Condition set: source organism: Dengue virus 1 Brazil/97-11/1997
Answers are plain numbers, as −log10 of the molar value.

Here is how some sequences turned out for pKd.
MAIGIVSILL
7.82
TTANISLTAI
9.10

Batch: pKd for all items listed.
1. QTSGTTTIFA
2. EAAAIFMTA

Reply:
8.67
9.52

====

# Target under test: HLA-B*08:01
# Assay notes: IEDB peptide-MHC binding, purified MHC/competitive/radioactivity; filed as Kd, often an IC50 or EC50 that approximates it; bounds were set here for any values at or beyond the usual limits of such assays
# Condition set: source organism: Dengue virus 3 Martinique/1243/1999
Observable: pKd
Give bare numbers, as −log10 of the molar value.

Query: Dear colleague, I am looking for the recorded pKd of the following sequence: LLITHYAII
Reply: 6.43

====

# Target under test: HLA-A*69:01
# Assay notes: IEDB peptide-MHC binding, purified MHC/competitive/fluorescence; filed as Kd, often an IC50 or EC50 that approximates it; bounds were set here for any values at or beyond the usual limits of such assays
# Condition set: source organism: Vibrio cholerae V52
Observable: Kd

Query: # value lookup — system HLA-A*69:01, readout Kd, item IGYRLGMGK
Reply: ≥ 20 µM

====

# Target under test: HLA-A*02:16
# Assay notes: IEDB peptide-MHC binding, purified MHC/direct/fluorescence; filed as Kd, often an IC50 or EC50 that approximates it; bounds were set here for any values at or beyond the usual limits of such assays
# Condition set: source organism: Influenza A virus(A/swine/Shandong/fNY/2003(H9N2))
Observable: pKd
Numbers only, as −log10 of the molar value.

Query: # value lookup — system HLA-A*02:16, readout pKd, item VSPLAVTWW
Reply: 6.88

====

# Target under test: HLA-B*18:01
# Assay notes: IEDB peptide-MHC binding, purified MHC/competitive/fluorescence; filed as Kd, often an IC50 or EC50 that approximates it; bounds were set here for any values at or beyond the usual limits of such assays
# Condition set: source organism: Rickettsia bellii RML369-C
pKd: −log10 of the molar value.
Observable: pKd

Query: Dear colleague, I am looking for the recorded pKd of the following sequence: AKIALAVYK
Reply: ≤ 4.70
